Reported EC50 values follow for various compounds
# System: Human Heme Oxygenase-1 (HMOX-1)
# assay-comment: ELISA assay to measure human heme oxygenase-1 (HMOX-1) in HepG2 lysate
# Format: cell-based
# condition-details: human HMOX1 protein level in HepG2 lysate; * = average of 2 or more EC50 determinations; NA = Not Active; read-out: EC50
Give the number; nM is assumed, so skip it.

compound	EC50 / nM
COCCNC(=O)c1ccc2c(c1)nc(Nc1nc3cc(OC(F)(F)F)ccc3[nH]1)n2C1CCOCC1	2300
CN(C)CC(=O)NCCNC(=O)c1ccc2c(c1)nc(Nc1nc3ccccc3o1)n2C	1800

q: For the record COCCNC(=O)c1ccc2c(c1)nc(Nc1nc3cc(OC(F)(F)F)ccc3[nH]1)n2CCOC , what value of EC50 is listed for Human Heme Oxygenase-1 (HMOX-1)?
a: 2700

q: Write down the reported EC50 of COCCNC(=O)c1cc2nc(Nc3nc4ccc(OC(F)(F)F)cc4o3)n(C)c2cc1F , test system: Human Heme Oxygenase-1 (HMOX-1).
a: 730

q: Could you share what EC50 was measured for COCCNC(=O)c1ccc2c(c1)nc(Nc1nc3c(s1)COCC3)n2C , tested on Human Heme Oxygenase-1 (HMOX-1)?
a: 6600

q: // map CC(O)CONC(=O)c1ccc2c(c1)nc(Nc1nc3ccccc3o1)n2C (stereo not drawn) to recorded EC50 (system: Human Heme Oxygenase-1 (HMOX-1))
a: 2000

q: What is its EC50 for Human Heme Oxygenase-1 (HMOX-1)? Entry: COCCNC(=O)c1ccc2c(c1)nc(Nc1nc3cc(C)ccc3o1)n2C
a: 1200

q: Return EC50 measured with Human Heme Oxygenase-1 (HMOX-1) given this compound: Cn1c(Nc2nc3ccccc3o2)nc2cc(C(N)C(F)(F)F)ccc21 (stereo not drawn)
a: 3600

q: # query: EC50 | item COCCOc1ccc2nc(Nc3nc4cc(C(=O)NOCCO)ccc4n3C)oc2c1 | system: Human Heme Oxygenase-1 (HMOX-1)
a: 1200
